CC50 at 5 days: recorded values
Test: MT-4 CC50 Assay (CellTiter Glo)
Type: cell-based
Conditions: human, MT-4 cells, luminescence, read-out: CC50-MT4

| compound | CC50 at 5 days |
| --- | --- |
| NS(=O)(=O)c1ccc2c(c1)N(C(=O)C1Cc3cc(-c4ccccn4)ccc3O1)CC2 (stereo not drawn) [Example 36] | ≥ 50 µM |
| Cc1cccc(-c2ccc3c(c2)CC(C(=O)N2CCc4cc(F)c(S(N)(=O)=O)cc42)C3C)n1 (stereo not drawn) [Example 99] | ≥ 10 µM |
| NS(=O)(=O)c1cc2c(cc1F)CCN2C(=O)[C@@H]1Cc2ccc(-c3ccccn3)cc2O1 [Example 65] | ≥ 10 µM |
| C[C@H]1c2ccc(-c3ccccn3)cc2C[C@@H]1C(=O)N1CCc2cc(F)c(S(N)(=O)=O)cc21 [Example 97] | ≥ 50 µM |
| C[C@@H]1Cc2cc(F)c(S(N)(=O)=O)cc2N1C(=O)[C@@H]1Cc2ccc(-c3cc(F)cc(F)c3F)cc2C1 [Example 62] | ≥ 10 µM |
| NS(=O)(=O)c1ccc2c(c1)N(C(=O)[C@@H]1Cc3ccc(-c4cccc(F)n4)cc3C1)CC2 [Example 85] | 0.33 µM |

====

Test system: HSV-2 virus (MS strain)
Experiment: HSV qPCR Assay (HSV replication in ARPE-19 cells)
Settings: Human alphaherpesvirus 2, ARPE-19, read-out: EC50-HSV2-qPCR

| compound | EC50 (nM) |
| --- | --- |
| NS(=O)(=O)c1ccc2c(c1)N(C(=O)C1Cc3ccc(-c4nccnc4F)cc3C1)CC2 (stereo not shown) | 17.5 |
| NS(=O)(=O)c1cc2c(cc1F)CCN2C(=O)[C@@H]1Cc2ccc(-c3ccccn3)cc2O1 | 1.4 |
| NS(=O)(=O)c1cc2c(cc1F)C[C@H](C(F)F)N2C(=O)[C@@H]1Cc2ccc(-c3ccccn3)cc2C1 | 58.3 |
| CC1CN(C(=O)C2Cc3ccc(-c4ccccn4)cc3C2)c2cc(S(N)(=O)=O)ccc21 (stereo not shown) | 10.9 |

====

CC50 at 5 days: recorded values
Experiment: MT-4 CC50 Assay (CellTiter Glo)
Type: cell-based
Settings: human, MT-4 cells, luminescence, read-out: CC50-MT4

| molecule | CC50 at 5 days |
| --- | --- |
| C[C@@H]1[C@@H](C)c2cc(F)c(S(N)(=O)=O)cc2N1C(=O)[C@@H]1Cc2ccc(-c3ccccn3)cc2C1 [Example 46] | ≥ 10 µM |
| C[C@@H]1Cc2cc(F)c(S(N)(=O)=O)cc2N1C(=O)[C@@H]1Cc2ccc(-c3ccccn3)cc2C1 [Example 35] | 24 µM |
| C[S@](=N)(=O)c1ccc2c(c1)N(C(=O)[C@@H]1Cc3ccc(-c4ccccn4)cc3C1)CC2 (single isomer, unassigned) [Example 33] | ≥ 50 µM |
| NS(=O)(=O)c1ccc2c(c1)N(C(=O)[C@@H]1Cc3ccc(-c4ncccc4F)cc3C1)CC2 [Example 89] | 0.308 µM |
| C[C@@H]1Cc2cc(F)c(S(N)(=O)=O)cc2N1C(=O)[C@@H]1Cc2ccc(-c3cc(F)ccc3Cl)cc2C1 [Example 50] | ≥ 10 µM |
| C[C@@H]1Cc2cc(Cl)c(S(N)(=O)=O)cc2N1C(=O)[C@@H]1Cc2ccc(-c3ccccn3)cc2C1 [Example 60] | ≥ 10 µM |
| C[C@H]1c2ccc(-c3ccccn3)cc2C[C@@H]1C(=O)N1CCc2ccc(S(N)(=O)=O)cc21 [Example 94] | ≥ 50 µM |
| NS(=O)(=O)c1cc2c(cc1F)CCN2C(=O)C1Cc2cc(-c3ccccn3)ccc2O1 (stereo not drawn) [Example 37] | ≥ 50 µM |
| NS(=O)(=O)c1ccc2c(c1)N(C(=O)C1Cc3ccc(-c4cocn4)cc3C1)CC2 (stereo not drawn) [Example 23] | ≥ 50 µM |
| C[C@@H]1Cc2ccc(S(N)(=O)=O)cc2N1C(=O)C1Cc2cc(-c3ccccn3)ccc2O1 (stereo partly drawn) [Example 57] | ≥ 10 µM |
| CC1c2ccc(-c3ccccn3)cc2CC1C(=O)N1CCc2cc(F)c(S(N)(=O)=O)cc21 (stereo not drawn) [Example 96] | 12.9 µM |
| CC1c2ccc(-n3cccn3)cc2CC1C(=O)N1CCc2cc(F)c(S(N)(=O)=O)cc21 (stereo not drawn) [Example 100] | 5.43 µM |
| CC[C@@H]1Cc2cc(F)c(S(N)(=O)=O)cc2N1C(=O)[C@@H]1Cc2ccc(-c3ccccn3)cc2C1 [Example 113] | ≥ 10 µM |
| C[C@@H]1Cc2cc(Br)c(S(N)(=O)=O)cc2N1C(=O)[C@@H]1Cc2ccc(-c3ccccn3)cc2C1 [Example 38] | ≥ 10 µM |
| NS(=O)(=O)c1ccc2c(c1)N(C(=O)C1Cc3ccc(-c4ncccc4F)cc3C1)CC2 (stereo not drawn) [Example 76] | 2.5 µM |
